Target: recombinant human PARP (Homo sapiens)
Sequence (P09874 whole entry): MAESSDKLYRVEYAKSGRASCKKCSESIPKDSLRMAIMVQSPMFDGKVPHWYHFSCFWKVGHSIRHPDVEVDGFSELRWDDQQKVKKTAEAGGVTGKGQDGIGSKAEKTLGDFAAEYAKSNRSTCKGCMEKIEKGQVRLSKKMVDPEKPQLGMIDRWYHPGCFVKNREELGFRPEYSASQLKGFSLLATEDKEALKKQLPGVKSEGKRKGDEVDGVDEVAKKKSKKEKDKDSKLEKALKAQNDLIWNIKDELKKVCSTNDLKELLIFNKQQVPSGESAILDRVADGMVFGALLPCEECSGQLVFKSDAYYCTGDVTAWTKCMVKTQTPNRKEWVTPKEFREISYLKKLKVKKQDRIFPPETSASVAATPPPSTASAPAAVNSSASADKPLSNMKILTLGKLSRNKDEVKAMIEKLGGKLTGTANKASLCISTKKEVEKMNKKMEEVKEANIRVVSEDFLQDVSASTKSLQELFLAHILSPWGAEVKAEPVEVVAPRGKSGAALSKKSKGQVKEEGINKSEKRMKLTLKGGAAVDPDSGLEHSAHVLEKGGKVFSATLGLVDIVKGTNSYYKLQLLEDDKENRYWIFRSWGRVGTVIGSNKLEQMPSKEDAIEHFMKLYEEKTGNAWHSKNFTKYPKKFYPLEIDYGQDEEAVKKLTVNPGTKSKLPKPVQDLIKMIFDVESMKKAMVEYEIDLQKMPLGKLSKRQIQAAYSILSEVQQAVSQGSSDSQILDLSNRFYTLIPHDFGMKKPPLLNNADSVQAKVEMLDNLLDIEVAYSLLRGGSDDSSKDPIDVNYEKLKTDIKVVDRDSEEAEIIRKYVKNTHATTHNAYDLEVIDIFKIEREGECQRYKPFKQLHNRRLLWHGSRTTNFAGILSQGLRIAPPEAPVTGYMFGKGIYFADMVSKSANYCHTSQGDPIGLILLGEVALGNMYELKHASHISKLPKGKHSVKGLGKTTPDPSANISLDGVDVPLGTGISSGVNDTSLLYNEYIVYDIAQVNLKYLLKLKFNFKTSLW
Experiment: PARP inhibitory activity ([3H]NAD incorporation, filter assay)
Settings: recombinant human PARP 2 units/ml, 0.3 μM [3H]NAD, DNA 3 μg/ml, room temperature 1.5 hour, duplicate; read-out: IC50 (inhibitory rate of PARP activity)
Procedure: PARP (recombinant human PARP, 660 units/mg) (Trevigen, Inc. (USA)) A buffer (50 mM Tris-HCl (pH8.0)/25 mM MgCl2 aqueous solution) was used in preparation of each solution. […] The inhibitory rate of PARP activity was calculated by the following equation. […] The inhibitory rate of each test compound was measured in duplicate, and an IC50 value thereof was calculated therefrom.
Where a name gives a salt, the structure may show the parent alone.
Collected IC50 values appear next to each entry.
readout label: IC50 (nM)

compound	readout label	relation symbol	observed
O=c1[nH]c(=O)n2c3c(cccc13)CC2 [Example 1]	IC50	=	140
CN(C)c1ccc(C(=O)NCC2Cc3cccc4c(=O)[nH]c(=O)n(c34)C2)cc1 (stereo not shown) [Example 29]	IC50	<	5
O=c1[nH]c(=O)n2c3c(cccc13)CCC2 [Example 2]	IC50	=	52
O=C(NCC1Cc2cccc3c(=O)[nH]c(=O)n(c23)C1)C1CCNCC1 (stereo not shown) [Example 39, hydrochloride]	IC50	=	7.4
